biological target: H^+ +K^+ ATPase (Oryctolagus cuniculus); construct: a rabbit gastric mucosa were isolated; from tissue; host or cells: rabbit gastric mucosa; vesicles from a discontinuous Ficoll gradient; assay: H^+ +K^+ ATPase Inhibitory Effects (Test 2); assay type: biochemical, rabbit; conditions: pH 6.0; read-out: H^+ + K^+ ATPase inhibitory action IC50
Sequence (P27112 whole entry): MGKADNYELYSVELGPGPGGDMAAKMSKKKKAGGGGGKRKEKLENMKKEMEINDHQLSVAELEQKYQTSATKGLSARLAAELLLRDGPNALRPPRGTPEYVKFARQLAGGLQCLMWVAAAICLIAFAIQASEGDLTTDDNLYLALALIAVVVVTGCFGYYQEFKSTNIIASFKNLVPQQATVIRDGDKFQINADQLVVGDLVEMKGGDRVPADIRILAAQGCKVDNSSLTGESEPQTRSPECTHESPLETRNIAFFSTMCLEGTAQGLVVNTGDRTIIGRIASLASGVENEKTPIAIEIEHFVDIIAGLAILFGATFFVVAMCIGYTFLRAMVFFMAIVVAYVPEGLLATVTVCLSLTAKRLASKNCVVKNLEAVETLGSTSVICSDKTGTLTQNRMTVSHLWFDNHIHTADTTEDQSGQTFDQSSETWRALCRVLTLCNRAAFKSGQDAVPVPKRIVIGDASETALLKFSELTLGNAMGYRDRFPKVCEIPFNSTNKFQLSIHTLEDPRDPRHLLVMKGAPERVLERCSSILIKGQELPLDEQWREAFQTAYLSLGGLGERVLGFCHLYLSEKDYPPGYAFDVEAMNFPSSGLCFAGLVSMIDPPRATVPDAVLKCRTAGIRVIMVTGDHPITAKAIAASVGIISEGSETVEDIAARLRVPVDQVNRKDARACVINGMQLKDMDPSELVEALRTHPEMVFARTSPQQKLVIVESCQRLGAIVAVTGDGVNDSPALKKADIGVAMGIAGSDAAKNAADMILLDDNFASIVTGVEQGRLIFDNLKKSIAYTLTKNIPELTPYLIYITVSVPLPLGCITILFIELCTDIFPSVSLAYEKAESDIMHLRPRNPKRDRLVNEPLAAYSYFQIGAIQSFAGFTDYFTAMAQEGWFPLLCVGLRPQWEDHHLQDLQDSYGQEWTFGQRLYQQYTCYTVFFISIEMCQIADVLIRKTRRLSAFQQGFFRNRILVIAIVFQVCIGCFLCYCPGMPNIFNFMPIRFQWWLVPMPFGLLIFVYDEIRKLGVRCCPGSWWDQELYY
Sequence (P18597 whole entry partner): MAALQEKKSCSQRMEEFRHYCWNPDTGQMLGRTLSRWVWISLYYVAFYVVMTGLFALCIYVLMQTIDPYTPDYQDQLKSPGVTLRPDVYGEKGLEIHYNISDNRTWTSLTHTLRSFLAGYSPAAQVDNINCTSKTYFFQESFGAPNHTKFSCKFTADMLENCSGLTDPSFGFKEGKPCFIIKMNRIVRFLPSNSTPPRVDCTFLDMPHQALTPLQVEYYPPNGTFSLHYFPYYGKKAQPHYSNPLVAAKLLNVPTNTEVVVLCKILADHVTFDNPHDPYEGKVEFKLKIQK
pIC50: −log10 of the molar value.
Threshold rule: pIC50 greater than or equal to 5 is fulfilled; below that, not fulfilled.

Hello, I need to know if COCCNc1ccccc1C[S+]([O-])c1ncc[nH]1 (centres unmarked) [Example 1] has measured pIC50 not below 5. Thanks!
not fulfilled

Hello, I need to know if COCCNc1cccc(C)c1C[S+]([O-])c1ncc[nH]1 (centres unmarked) [Example 4] has measured pIC50 not below 5. Thanks!
fulfilled

Hello, I need to know if CCOCCNc1ccc(C)cc1C[S+]([O-])c1ncc[nH]1 (centres unmarked) [Example 7] has measured pIC50 not below 5. Thanks!
not fulfilled

Hello, I need to know if COCCNc1ccc(C)cc1C[S+]([O-])c1ncc[nH]1 (centres unmarked) [Example 3] has measured pIC50 not below 5. Thanks!
not fulfilled

Hello, I need to know if CC(C)OCCNc1ccccc1C[S+]([O-])c1ncc[nH]1 (centres unmarked) [Example 2] has measured pIC50 not below 5. Thanks!
not fulfilled

Hello, I need to know if COCCNc1cc(C)c(OC)c(C)c1C[S+]([O-])c1ncc[nH]1 (centres unmarked) [Example 8] has measured pIC50 not below 5. Thanks!
fulfilled

Hello, I need to know if CCOCCNc1ccccc1C[S+]([O-])c1ncc[nH]1 (centres unmarked) [Example 5] has measured pIC50 not below 5. Thanks!
not fulfilled

* * *

target: H^+ +K^+ ATPase (Oryctolagus cuniculus); construct: a rabbit gastric mucosa were isolated; from tissue; host or cells: rabbit gastric mucosa; vesicles from a discontinuous Ficoll gradient; experiment: H^+ +K^+ ATPase Inhibitory Effects (Test 2); type: biochemical, rabbit; settings: pH 7.4; read-out: H^+ + K^+ ATPase inhibitory action IC50
# pIC50 annotations
The quantity pIC50 is defined as the negative base-10 logarithm of the molar concentration.

Use the examples below as a reference point.
{"COMPOUND": "COCCCNc1ccccc1C[S+]([O-])c1ncc[nH]1 (centres unmarked)", "pIC50": 4.22}
{"COMPOUND": "CC(C)OCCNc1ccccc1C[S+]([O-])c1ncc[nH]1 (centres unmarked)", "pIC50": 3.72}
{"COMPOUND": "COCCNc1cc(C)c(OC)c(C)c1C[S+]([O-])c1ncc[nH]1 (centres unmarked)", "pIC50": 4.96}
{"COMPOUND": "COCCNc1ccccc1C[S+]([O-])c1ncc[nH]1 (centres unmarked)", "pIC50": 3.74}
{"COMPOUND": "COCCNc1cccc(C)c1C[S+]([O-])c1ncc[nH]1 (centres unmarked)", "pIC50": 4.59}
{"COMPOUND": "CCOCCNc1ccccc1C[S+]([O-])c1ncc[nH]1 (centres unmarked)", "pIC50": 4.28}

We now examine a further compound.
Would you kindly share the measured pIC50 for CCOCCNc1ccc(C)cc1C[S+]([O-])c1ncc[nH]1 (centres unmarked) ?
4.03

The origin of these recorded values is patent US5091403A.
